Test Target: 5-hydroxytryptamine receptor 7 (Rattus norvegicus, UniProt P32305)
Sequence (P32305 whole entry): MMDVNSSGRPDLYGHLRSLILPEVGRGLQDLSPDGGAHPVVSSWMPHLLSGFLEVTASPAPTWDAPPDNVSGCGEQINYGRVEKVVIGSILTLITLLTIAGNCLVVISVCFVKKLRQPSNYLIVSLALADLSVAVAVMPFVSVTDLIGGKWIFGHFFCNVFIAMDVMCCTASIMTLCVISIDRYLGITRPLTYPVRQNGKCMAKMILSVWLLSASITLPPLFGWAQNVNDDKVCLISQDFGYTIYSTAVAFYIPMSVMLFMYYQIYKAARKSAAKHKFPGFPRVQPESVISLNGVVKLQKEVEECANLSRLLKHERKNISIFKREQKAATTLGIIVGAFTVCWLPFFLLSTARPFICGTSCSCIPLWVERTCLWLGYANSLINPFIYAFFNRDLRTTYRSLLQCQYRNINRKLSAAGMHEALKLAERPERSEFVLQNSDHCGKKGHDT
Can you tell me Ki for the items I'm about to list?
One number for each entry, in µM.

{"Compound Smiles": "CCCN(C(C)C)[C@H]1COc2cccc(C(=O)NC(C)C)c2C1", "Ki, µM": 0.24}

Please turn your attention to the following entry.
// query Value lookup for Ki; key = CCCN(C(C)C)[C@H]1COc2cccc(C(N)=O)c2C1
// result 0.088

----------
Listed here: compounds with reported pKi for 5-hydroxytryptamine receptor 1A (Rattus norvegicus, UniProt P19327).
Give bare numbers, as −log10 of the molar value.

{"Compound Smiles": "CCCN(C(C)C)[C@H]1COc2cccc(C(N)=O)c2C1", "pKi": 9.59}

As a next step, examine the compound that follows.
// query Short answer please: pKi, 5-hydroxytryptamine receptor 1A (Rattus norvegicus, UniProt P19327), entry CCCN(C(C)C)[C@H]1COc2cccc(C(=O)NC(C)C)c2C1
// result 8.35

----------
pKi, 5-hydroxytryptamine receptor 2C (Rattus norvegicus, UniProt P08909): measured values
Numbers only, as −log10 of the molar value.

{"Compound Smiles": "CCCN(C(C)C)[C@H]1COc2cccc(C(N)=O)c2C1", "Quantitative Readout": 6.30}

Next:
// query Give the measured pKi of CCCN(C(C)C)[C@H]1COc2cccc(C(=O)NC(C)C)c2C1 .
// result 6.30

----------
Test Target: 5-hydroxytryptamine receptor 1B (Bos mutus, UniProt L8IGV0)
Sequence (L8IGV0 whole entry): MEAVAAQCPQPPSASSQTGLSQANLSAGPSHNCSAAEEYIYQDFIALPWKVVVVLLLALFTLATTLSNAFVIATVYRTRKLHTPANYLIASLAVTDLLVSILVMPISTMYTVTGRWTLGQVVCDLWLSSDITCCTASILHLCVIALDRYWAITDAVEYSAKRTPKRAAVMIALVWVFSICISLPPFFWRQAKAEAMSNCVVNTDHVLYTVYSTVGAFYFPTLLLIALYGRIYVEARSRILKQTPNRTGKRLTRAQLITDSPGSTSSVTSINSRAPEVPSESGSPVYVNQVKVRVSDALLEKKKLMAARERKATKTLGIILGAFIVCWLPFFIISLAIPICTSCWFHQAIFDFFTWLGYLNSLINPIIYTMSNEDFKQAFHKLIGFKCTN
Readout Label: Ki (nM)
Give bare numbers, in nM.

// query Ki lookup needed for CCCN(C(C)C)[C@H]1COc2cccc(C(=O)NC(C)C)c2C1 , thanks.
// result 1400

Values were extracted from BindingDB's records for PubMed 11714872.
